Molecular target: T1, sIL-6R (soluble IL-6 receptor; SBH Sciences) (human, UniProt P08887 20-365)
T1 construct: also called human IL-6R
T1 sequence: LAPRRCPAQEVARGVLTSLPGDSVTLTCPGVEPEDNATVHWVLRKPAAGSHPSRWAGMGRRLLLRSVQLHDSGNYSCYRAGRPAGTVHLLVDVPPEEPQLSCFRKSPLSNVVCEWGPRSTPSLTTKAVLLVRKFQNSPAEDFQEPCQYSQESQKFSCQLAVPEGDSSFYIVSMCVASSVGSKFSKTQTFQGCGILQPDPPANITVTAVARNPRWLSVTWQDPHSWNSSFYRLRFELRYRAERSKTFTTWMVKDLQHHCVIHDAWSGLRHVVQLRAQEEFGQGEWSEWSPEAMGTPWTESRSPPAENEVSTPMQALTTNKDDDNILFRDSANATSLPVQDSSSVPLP
Assay: SPR (BIAcore 3000), antibody on chip, sIL-6R analyte, 25 C
assayEndpoint: kon (M⁻¹ s⁻¹)
Report as a plain number; the unit M⁻¹ s⁻¹ is understood.

binder: Tocilizumab (antibody, human IgG1, kappa, V domains shown, also called 25; 25(control)) VH: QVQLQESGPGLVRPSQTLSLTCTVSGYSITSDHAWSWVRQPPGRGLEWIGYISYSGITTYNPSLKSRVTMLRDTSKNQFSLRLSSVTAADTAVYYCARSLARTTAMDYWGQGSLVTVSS VL: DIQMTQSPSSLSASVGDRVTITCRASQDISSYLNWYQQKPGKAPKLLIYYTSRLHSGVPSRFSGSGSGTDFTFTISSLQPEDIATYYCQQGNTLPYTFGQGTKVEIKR
kon / M⁻¹ s⁻¹: 122000

# context switch: different binder, same kon
Query: Query (binder): 201# (antibody, human IgG1, kappa, V domains shown, also called Sample # 201) VH: QVQLQESGPGLVRPSQTLSLTCTVSGYSITSDHAWSWVRQPPGRGLEWIGFISYSGMTTYNPSLKSRVTMLRDTSKNQFSLRLSSVTAADTAVYYCARCLARITAIDFWGQGSLVTVSS VL: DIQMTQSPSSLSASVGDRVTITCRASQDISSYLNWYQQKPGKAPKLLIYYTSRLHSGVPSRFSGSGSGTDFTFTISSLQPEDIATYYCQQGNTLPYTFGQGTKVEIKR ; field requested: kon
Result: 218000
